Several publications report IC50 on Cytosolic phospholipase A2 (Homo sapiens); those values are gathered here.
readout: IC50 (nM)

Please review the entries below; each comes with its answer.
Cc1c(S(=O)(=O)NCCc2c(CCOc3ccc(C(=O)O)cc3)c3cc(Cl)ccc3n2C(c2ccccc2)c2ccccc2)cnn1-c1ccccc1 :: 400
O=C1NC(=S)S/C1=C\c1ccc(NC(=O)[C@@H]2C[C@H](SCc3ccccc3)CN2S(=O)(=O)Cc2ccc(Br)cc2)cc1 :: 3400

(P) O=C(O)c1ccc(OCCc2c(CCNS(=O)(=O)c3c(Cl)cccc3Cl)n(C(c3ccccc3)c3ccccc3)c3ccc(Cl)cc23)cc1
(Q) O=C1NC(=O)/C(=C/c2ccc(C(=O)NC[C@@H]3C[C@@H](OCc4ccccc4-c4ccccc4)CN3C(=O)C3CCCCC3C(=O)c3ccccc3)cc2)S1 (stereo partly drawn)
(R) COc1ccccc1-c1ccccc1O[C@@H]1C[C@@H](CNC(=O)c2ccc(/C=C3\SC(=O)NC3=O)cc2)N(C(=O)c2ccccc2C(=O)c2ccc(F)cc2)C1
(S) O=C(O)c1ccc(OCCc2c(CCNS(=O)(=O)Cc3ccc(OC(F)(F)F)cc3)n(C(c3ccccc3)c3ccccc3)c3ccc(Cl)cc23)cc1
Q: Ascending by IC50, please. Return the labels ranked in the requested order, please.
Result: R, P, S, Q
(R: 41 nM, P: 190 nM, S: 450 nM, Q: 3200 nM)

###

Collected IC50 for UniProt P47712 across several studies; molecules listed below.
readout: IC50 (nM)

CC(=O)N(Cc1ccc(/C=C2\SC(=O)NC2=O)cc1)C[C@@H]1C[C@@H](OCc2ccccc2-c2ccccc2)CN1C(=O)c1ccccc1C(=O)c1ccc(F)cc1 :: 2800
O=C(O)c1ccc(OCCc2c(CCNS(=O)(=O)c3c(Cl)cc(Cl)cc3Cl)n(C(c3ccccc3)c3ccccc3)c3ccc(Cl)cc23)cc1 :: 320
CC(=O)Nc1ccc(S(=O)(=O)N2C[C@@H](SCc3ccccc3)C[C@H]2C(=O)Nc2ccc(/C=C3\SC(=S)NC3=O)cc2)cc1 :: 6400
O=C1NC(=O)/C(=C/c2ccc(C(=O)NC[C@@H]3C[C@@H](OCc4ccccc4-c4ccccc4)CN3C(=O)c3ccccc3C(=O)c3ccc(F)cc3)cc2)S1 :: 79
CC(C)CN(C1CC(CNC(=O)c2ccc(C=C3SC(=O)NC3=O)cc2)N(C(=O)c2ccccc2C(=O)c2ccccc2F)C1)C(c1ccccc1)c1ccccc1 (centres unmarked) :: 14
O=C(O)c1ccc(OCCc2c(CCNS(=O)(=O)Cc3cccc([N+](=O)[O-])c3)n(C(c3ccccc3)c3ccccc3)c3ccc(Cl)cc23)cc1 :: 260
CCCCS(=O)(=O)NCCc1c(CCOc2ccc(C(=O)O)cc2)c2cc(Cl)ccc2n1C(c1ccccc1)c1ccccc1 :: 2500
CN(C)CC1CCCCN1CCS(=O)(=O)NCCc1c(CCOc2ccc(C(=O)O)cc2)c2cc(Cl)ccc2n1C(c1ccccc1)c1ccccc1 (centres unmarked) :: 800
CN(C(=O)[C@@H]1C[C@@H](OCc2ccccc2-c2ccccc2)CN1C(=O)c1ccccc1C(=O)c1ccc(F)cc1)c1ccc(/C=C2\SC(=S)NC2=O)cc1 :: 4000
COc1cc(C)ccc1S(=O)(=O)NCCc1c(CCCc2ccc(C(=O)O)cc2)c2cc(Cl)ccc2n1C(c1ccccc1)c1ccccc1 :: 190

(a) O=C(O)c1ccc(OCCc2c(CCNS(=O)(=O)c3ccccc3F)n(C(c3ccccc3)c3ccccc3)c3ccc(Cl)cc23)cc1
(b) O=C(O)c1ccc(CCCc2c(CCNS(=O)(=O)c3ccccc3Cl)n(C(c3ccccc3)c3ccccc3)c3ccc(Cl)cc23)cc1
Q: Larger number for IC50: a , or b ? # reply format: chosen label
Result: a

(a) O=C1NC(=O)/C(=C/c2ccc(C(=O)NC[C@H]3C[C@@H](SCc4ccccc4-c4ccccc4)CN3C(=O)c3ccccc3C(=O)c3ccc(F)cc3)cc2)S1
(b) O=C(O)c1ccc(CCCc2c(CCNS(=O)(=O)c3c(F)cccc3C(F)(F)F)n(C(c3ccccc3)c3ccccc3)c3ccc(Cl)cc23)cc1
(c) O=C1NC(=O)/C(=C/c2ccc(NC(=O)[C@H]3C[C@@H](SCc4ccccc4)CN3S(=O)(=O)c3ccc(-c4ccccc4)cc3)cc2)S1
(d) O=C1NC(=O)/C(=C/c2ccc(C(=O)NC[C@@H]3C[C@@H](OCc4ccccc4-c4ccccc4)CN3C(=O)c3ccccc3C(=O)c3cccs3)cc2)S1
Q: Falling order of IC50, please. Output spec: labels arranged per the requested ranking.
Result: c, a, d, b
(c: 10000 nM, a: 2510 nM, d: 1000 nM, b: 90 nM)

(1) CCN(Cc1ccccc1-c1ccccc1)[C@@H]1C[C@@H](C(=O)Nc2ccc(/C=C3\SC(=O)NC3=O)cc2)N(C(=O)c2ccccc2C(=O)c2ccc(F)cc2)C1
(2) O=C1NC(=O)/C(=C/c2ccc(C(=O)NC[C@@H]3C[C@H](SC(c4ccccc4)(c4ccccc4)c4ccccc4)CN3C(=O)OCc3ccc([N+](=O)[O-])cc3)cc2)S1
Q: // task: argmin of IC50 over [ 1 , 2 ] Choose, then provide that item's label.
Result: 1
(1: 69 nM, 2: 2400 nM)

(1) CC(C)CN(Cc1ccccc1-c1ccccc1)[C@@H]1C[C@@H](CNC(=O)c2ccc(/C=C3\SC(=O)NC3=O)cc2)N(C(=O)c2ccccc2C(=O)c2ccc(F)cc2)C1
(2) O=C1NC(=S)SC1=Cc1ccc(NC(=O)[C@@H]2C[C@H](SCc3ccccc3)CN2)cc1
Q: Two entries are listed, 1 and 2 . Which one carries the higher IC50? When you have decided, please share the label of that item.
Result: 2

###

Field: IC50. System: UniProt:P47712. Provenance: assorted publications.
readout: IC50 (nM)

# example entries with known answers
O=C(O)c1ccc(OCCc2c(CCNS(=O)(=O)CSc3ccccc3)n(C(c3ccccc3)c3ccccc3)c3ccc(Cl)cc23)cc1 :: 470
O=C(O)c1ccc(OCCc2c(CCNS(=O)(=O)Cc3ccncc3)n(C(c3ccccc3)c3ccccc3)c3ccc(Cl)cc23)cc1 :: 690

(P) O=C1NC(=O)/C(=C/c2ccc(C(=O)NC[C@@H]3C[C@@H](Oc4ccccc4-c4cccc(C(F)(F)F)c4)CN3C(=O)c3ccccc3C(=O)c3ccc(F)cc3)cc2)S1
(Q) CC(C)CN(C1CC(CNC(=O)c2ccc(C=C3SC(=O)NC3=O)cc2)N(C(=O)c2cc(Cl)ccc2C(=O)c2ccc(F)cc2F)C1)C(c1ccccc1)c1ccccc1 (stereo not drawn)
(R) Cc1cc(C)n(CCS(=O)(=O)NCCc2c(CCOc3ccc(C(=O)O)cc3)c3cc(Cl)ccc3n2C(c2ccccc2)c2ccccc2)n1
(S) CSc1ccccc1S(=O)(=O)NCCc1c(CCCc2ccc(C(=O)O)cc2)c2cc(Cl)ccc2n1C(c1ccccc1)c1ccccc1
Q: Arrange the 4 compounds from largest to smallest IC50. Returns: the labels listed in the requested order.
Result: R, S, P, Q

###

Here, molecules appear alongside IC50 reported for Cytosolic phospholipase A2 (Homo sapiens) in the literature.
readout: IC50 (nM)

Known results for molecules:
CC(C)Cc1cccc(-c2ccccc2)c1O[C@@H]1C[C@@H](CNC(=O)c2ccc(/C=C3\SC(=O)NC3=O)cc2)N(C(=O)c2ccccc2C(=O)c2ccc(F)cc2)C1 :: 24
O=C1NC(=O)C(=Cc2ccc(S(=O)(=O)NCC3CC(SC(c4ccccc4)(c4ccccc4)c4ccccc4)CN3C(=O)c3ccccc3)cc2)S1 (stereo not drawn) :: 440
O=C(O)c1ccc(CCCc2c(CCNS(=O)(=O)c3cccc(C(F)(F)F)c3)n(C(c3ccccc3)c3ccccc3)c3ccc(Cl)cc23)cc1 :: 140

(a) Cc1ccccc1-c1ccccc1O[C@@H]1C[C@@H](CNC(=O)c2ccc(/C=C3\SC(=O)NC3=O)cc2)N(C(=O)c2ccccc2C(=O)c2ccc(F)cc2)C1
(b) COc1ccccc1SCS(=O)(=O)NCCc1c(CCOc2ccc(C(=O)O)cc2)c2cc(Cl)ccc2n1C(c1ccccc1)c1ccccc1
Q: Thinking about recorded IC50 values, which is higher, a or b ? Your choice should be expressed through its label.
Result: b

###

Endpoint summary: pIC50, system: Cytosolic phospholipase A2 (Homo sapiens), multiple sources combined.
pIC50: −log10 of the molar value.
readout: pIC50

CC1CCCN1CCS(=O)(=O)NCCc1c(CCOc2ccc(C(=O)O)cc2)c2cc(Cl)ccc2n1C(c1ccccc1)c1ccccc1 (stereo not drawn) :: 5.89

(P) Nc1ccccc1CS(=O)(=O)NCCc1cc(OCCc2cn(C(c3ccccc3)c3ccccc3)c3ccc(Cl)cc23)ccc1C(=O)O
(Q) COc1ccc(C(SC2CC(CNC(=O)c3ccc(C=C4SC(=O)NC4=O)cc3)N(C(=O)c3ccccc3C(=O)c3ccc(F)cc3F)C2)(c2ccccc2)c2ccc(OC)cc2)cc1 (stereo not drawn)
(R) O=C(/C=C/c1ccc(/C=C2\SC(=O)NC2=O)cc1)NC[C@@H]1C[C@@H](OCc2ccccc2-c2ccccc2)CN1C(=O)c1ccccc1C(=O)c1ccc(F)cc1
(S) O=C(O)c1ccc(CCCc2c(CCNS(=O)(=O)Cc3cccc(Cl)c3)n(C(c3ccccc3)c3ccccc3)c3ccc(Cl)cc23)cc1
Q: Please list these compounds in decreasing order of pIC50. Put the labels in the requested order and write them down.
Result: Q, R, S, P
(Q: 8.05, R: 7.28, S: 6.82, P: 6.01)

(P) O=C(O)c1ccc(OCCc2c(CCNS(=O)(=O)CCN3CCNC3=S)n(C(c3ccccc3)c3ccccc3)c3ccc(Cl)cc23)cc1
(Q) O=C1NC(=O)/C(=C/c2ccc(C(=O)NC[C@@H]3C[C@@H](N(CC4CC4)C(c4ccccc4)c4ccccc4)CN3C(=O)c3ccccc3C(=O)c3ccc(F)cc3)cc2)S1
(R) CS[C@H]1C[C@@H](C(=O)Nc2ccccc2/C=C2\SC(=O)NC2=O)N(S(=O)(=O)c2ccc(-c3ccccc3)cc2)C1
(S) CCN(CC)c1cccc(O[C@@H]2C[C@@H](CNC(=O)c3ccc(/C=C4\SC(=O)NC4=O)cc3)N(C(=O)c3ccccc3C(=O)c3ccc(F)cc3)C2)c1
(T) O=C1NC(=S)SC1=Cc1ccc(NC(=O)[C@@H]2C[C@H](SCc3ccccc3)CN2C(=O)c2ccncc2)cc1
Q: Reorder: pIC50, max to min. Lab note: final answer is the ordered label list.
Result: Q, S, P, T, R
(Q: 7.57, S: 7.02, P: 6.02, T: 5.04, R: 4.52)

(1) NC(=O)c1ccc(CS[C@H]2C[C@@H](CNC(=O)c3ccc(/C=C4\SC(=S)NC4=O)cc3)N(C(=O)c3ccccc3)C2)cc1
(2) O=C1NC(=O)/C(=C/c2ccc(S(=O)(=O)NC[C@@H]3C[C@@H](OCc4ccccc4-c4ccccc4)CN3C(=O)c3ccccc3C(=O)c3ccc(F)cc3)s2)S1
Q: Hey, between 1 and 2 which has a smaller measured pIC50? Answer format: the label of the selected item.
Result: 1
(1: 4.51, 2: 5.89)
